Provide the reported inhibition of each item.
Measured On: Large T antigen (Simian virus 40) (UniProt P03070)
Sequence (P03070 whole entry, looked up): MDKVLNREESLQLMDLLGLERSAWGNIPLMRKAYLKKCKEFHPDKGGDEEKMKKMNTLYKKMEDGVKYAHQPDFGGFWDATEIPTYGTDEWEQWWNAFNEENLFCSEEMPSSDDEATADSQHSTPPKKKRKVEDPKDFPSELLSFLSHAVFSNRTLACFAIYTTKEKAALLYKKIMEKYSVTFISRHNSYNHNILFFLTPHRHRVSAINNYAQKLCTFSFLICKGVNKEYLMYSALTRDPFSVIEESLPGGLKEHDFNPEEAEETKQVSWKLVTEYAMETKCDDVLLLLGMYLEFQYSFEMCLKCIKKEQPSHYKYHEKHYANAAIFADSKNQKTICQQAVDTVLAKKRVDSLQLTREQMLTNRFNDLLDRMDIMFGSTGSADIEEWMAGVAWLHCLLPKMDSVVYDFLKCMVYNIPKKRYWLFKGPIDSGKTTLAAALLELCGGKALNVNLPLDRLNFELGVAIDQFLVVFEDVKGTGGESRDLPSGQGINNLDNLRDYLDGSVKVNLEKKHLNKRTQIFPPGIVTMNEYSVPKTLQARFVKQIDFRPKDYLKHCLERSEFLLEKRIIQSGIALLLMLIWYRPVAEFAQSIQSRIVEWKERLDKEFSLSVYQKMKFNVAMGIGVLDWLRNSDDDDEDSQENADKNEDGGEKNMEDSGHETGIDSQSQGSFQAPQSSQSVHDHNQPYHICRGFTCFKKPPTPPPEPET
Procedure Summary: SV40 large T antigen inhibitors, biochemical (AID 1903)
Condition Info: SV40 large T antigen ATPase/helicase inhibition assay; at 20 µM; hits give high values
Screen size: about 310,000 compounds; about 1,200 (0.39%) were called active. Only a sample is shown. Entries with a potency or affinity are not part of this list.
Give bare numbers, in %.

Record excerpt, results attached:
Compound | Result
COc1cccc(NC(=O)CCC(=O)Nc2cccc(OC)c2)c1 | 11.8
CCOc1ccccc1NC(=S)NCCc1ccc(F)cc1 | 2.66
C=C(c1cccc2ccccc12)P(=O)(O)O | 8.15
CCCN(C(=O)c1ccc(N(C)S(=O)(=O)c2ccc(C)cc2)cc1)C1CCS(=O)(=O)C1 (stereo unspecified) | 11

Look at each compound and report its inhibition.
1. Cc1cc(/C=C2/NC(=O)NC2=O)c(C)n1-c1sc2c(c1C#N)CCCC2
2. Cn1ccnc1Sc1cc(Cl)ccc1[N+](=O)[O-]
3. C/C(Nc1ccc(Cl)cc1)=C(/C#N)C(N)=O
4. CN(C(=S)Nc1ccc(Oc2ccccc2)cc1)c1ccc(O)cc1
5. Cc1cccn2c(CNCCSc3nccn3C)c(C(=O)N3CCCCC3)nc12

Response:
1. 17.3
2. 1.59
3. -6.59
4. 21.8
5. 14.5

Look at each compound and report its inhibition.
1. Cc1cc(NC(=O)C(C)SCC(=O)Nc2ccc(SC(F)F)cc2)no1 (stereo unspecified)
2. COc1ccc(OCC(=O)Nc2cccc(OC)c2)cc1

Response:
15.7
2.29
